- Tested on: Salmonella enteritidis
- ASSAY_METHOD_TEXT: Antibacterial activity against Salmonella enteritidis SM012 assessed as inhibition of bacterial growth incubated for 18 to 24 hrs by broth microdilution assay
- Assay type: functional, Salmonella enterica subsp. enterica serovar Enteritidis
- CONDITION_DESCRIPTION: Salmonella enterica, time 18-24 hrs
REPORTED_METRIC: MIC

{"COMPOUND": "COc1c(OC(=O)C(C)C)cc2oc3cc(O)c(CC=C(C)C)c(O)c3c(=O)c2c1CC=C(C)C", "REPORTED_METRIC": "MIC", "EXPERIMENTAL_VALUE": "> 256 µg/mL"}
{"COMPOUND": "C=CCOc1cc2oc3cc(OCC=C)c(OC)c(CC=C(C)C)c3c(=O)c2c(OC(=O)C(C)C)c1CC=C(C)C", "REPORTED_METRIC": "MIC", "EXPERIMENTAL_VALUE": "> 256 µg/mL"}
{"COMPOUND": "COc1c(O)cc2c(c1CC=C(C)C)Cc1c(cc(O)c(CC=C(C)C)c1O)O2", "REPORTED_METRIC": "MIC", "EXPERIMENTAL_VALUE": "> 256 µg/mL"}
{"COMPOUND": "COc1c(OCCCCCCO)cc2oc3cc(O)c(CC=C(C)C)c(O)c3c(=O)c2c1CC=C(C)C", "REPORTED_METRIC": "MIC", "EXPERIMENTAL_VALUE": "> 256 µg/mL"}
{"COMPOUND": "COc1c(O)cc2oc3cc(O)c(CC=C(C)C)c(O)c3c(=O)c2c1CC=C(C)C [MANGOSTIN]", "REPORTED_METRIC": "MIC", "EXPERIMENTAL_VALUE": "> 256 µg/mL"}
{"COMPOUND": "COc1c(O)cc2oc3cc(O)c(CC=C(C)C)c(OC(=O)C(C)C)c3c(=O)c2c1CC=C(C)C", "REPORTED_METRIC": "MIC", "EXPERIMENTAL_VALUE": "> 256 µg/mL"}
{"COMPOUND": "COc1cc2oc3cc(OC)c(OC)c(CC=C(C)C)c3c(=O)c2c(OC)c1CC=C(C)C", "REPORTED_METRIC": "MIC", "EXPERIMENTAL_VALUE": "> 256 µg/mL"}
{"COMPOUND": "COc1c(OCCCCCCO)cc2oc3cc(OCCCCCCO)c(CC=C(C)C)c(O)c3c(=O)c2c1CC=C(C)C", "REPORTED_METRIC": "MIC", "EXPERIMENTAL_VALUE": "> 256 µg/mL"}
{"COMPOUND": "COc1c(OC(=O)C(C)C)cc2oc3cc(OC(=O)C(C)C)c(CC=C(C)C)c(O)c3c(=O)c2c1CC=C(C)C", "REPORTED_METRIC": "MIC", "EXPERIMENTAL_VALUE": "> 256 µg/mL"}
{"COMPOUND": "COc1c(O)cc2oc3cc(OC(=O)C(C)C)c(CC=C(C)C)c(O)c3c(=O)c2c1CC=C(C)C", "REPORTED_METRIC": "MIC", "EXPERIMENTAL_VALUE": "> 256 µg/mL"}
{"COMPOUND": "COc1c(OC(=O)C(C)C)cc2oc3cc(OC(=O)C(C)C)c(CC=C(C)C)c(OC(=O)C(C)C)c3c(=O)c2c1CC=C(C)C", "REPORTED_METRIC": "MIC", "EXPERIMENTAL_VALUE": "> 256 µg/mL"}
{"COMPOUND": "COc1c(O)cc2oc3cc4c(c(O)c3c(=O)c2c1CC=C(C)C)CCC(C)(C)O4", "REPORTED_METRIC": "MIC", "EXPERIMENTAL_VALUE": "> 256 µg/mL"}
{"COMPOUND": "C=CCOc1cc2oc3cc(O)c(CC=C(C)C)c(O)c3c(=O)c2c(CC=C(C)C)c1OC", "REPORTED_METRIC": "MIC", "EXPERIMENTAL_VALUE": "> 256 µg/mL"}
{"COMPOUND": "COc1c(O)cc2oc3cc(O)c(CC=C(C)C)c(OC(C)=O)c3c(=O)c2c1CC=C(C)C", "REPORTED_METRIC": "MIC", "EXPERIMENTAL_VALUE": "> 256 µg/mL"}
